Molecular target: OX2R (Homo sapiens, UniProt O43614)
Construct: expressed in transfected cells; host or cells: CHO (Chinese hamster ovary) cells constitutively expressing the OX2R gene and NFAT-luciferase (CHOOX2R)
Sequence (O43614 1-444): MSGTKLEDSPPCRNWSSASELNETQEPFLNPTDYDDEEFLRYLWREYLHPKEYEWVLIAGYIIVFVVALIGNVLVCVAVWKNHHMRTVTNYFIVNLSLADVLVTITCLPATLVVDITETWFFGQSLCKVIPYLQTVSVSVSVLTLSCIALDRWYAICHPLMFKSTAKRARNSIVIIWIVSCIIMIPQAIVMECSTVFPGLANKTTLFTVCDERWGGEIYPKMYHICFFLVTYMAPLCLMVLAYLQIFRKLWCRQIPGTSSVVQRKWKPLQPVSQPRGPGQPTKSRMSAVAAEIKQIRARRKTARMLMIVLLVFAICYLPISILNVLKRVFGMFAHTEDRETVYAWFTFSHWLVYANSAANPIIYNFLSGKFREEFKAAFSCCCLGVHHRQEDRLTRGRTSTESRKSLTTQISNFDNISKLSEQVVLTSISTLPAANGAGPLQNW
Test: Evaluation of agonist activity against OX2R (CHOOX2R cells, Fura2AM fluorescence, FDSS3000)
Format: cell-based
Settings: test compound 10 μM; relative to orexin-A as full agonist (100%); CHOOX2R cells
Response (10 μM (%)) values, listed per item

Worked examples, 2 compounds total:
COc1cccc(C(=O)NCCNc2cccc(NS(=O)(=O)c3cc(-c4cc(Cl)cc(Cl)c4)ccc3OC)c2)c1: <5%
COc1ccc(-c2ccccc2F)cc1S(=O)(=O)Nc1cccc(NCCNC(=O)c2ccncc2)c1: <5%

## Task Value lookup for Response (10 μM (%)); key = COc1ccccc1C(=O)NCCNc1cccc(NS(=O)(=O)c2cc(-c3ccccc3F)ccc2OC)c1
## Result 57%

## Task I would be grateful if you could share the reported Response (10 μM (%)) for COc1ccccc1C(=O)NCCNc1cccc(NS(=O)(=O)c2cc(-c3cc(Cl)cc(Cl)c3)ccc2OC)c1 .
## Result <5%

## Task Any idea what Response (10 μM (%)) was measured for COc1ccc(-c2ccccc2F)cc1S(=O)(=O)Nc1cccc(NCCNC(=O)c2ccc(Cl)cc2)c1 ?
## Result <5%

Reference source: patent US9815787B2
